Data credit: ChEMBL document CHEMBL3112453

# TEST NAME: Chemical stability in simulated gastric fluid assessed as compound remaining at 5 mg/ml at pH 2 measured at 2 hrs by HPLC analysis
# Type: physicochemical
# REPORTED CONDITIONS: read-out: Stability
TEST READOUT: remaining at 2 h, 5 mg/ml (%)

{"SAMPLE SMILES": "C/C=C(\\C)C(=O)O[C@@H]1CC(C)(C)C[C@H]2C3=CC[C@@H]4[C@@]5(C)CC[C@H](OC(=O)/C=C/c6ccccc6)C(C)(C)[C@@H]5CC[C@@]4(C)[C@]3(C)CC[C@@]12C(=O)O", "READOUT UNIT": "%", "remaining at 2 h, 5 mg/ml": 96.4}
{"SAMPLE SMILES": "CC(C)=CC(=O)O[C@@H]1CC(C)(C)C[C@H]2C3=CC[C@@H]4[C@@]5(C)CC[C@H](OC(=O)/C=C/c6ccccc6)C(C)(C)[C@@H]5CC[C@@]4(C)[C@]3(C)CC[C@@]12C(=O)O", "READOUT UNIT": "%", "remaining at 2 h, 5 mg/ml": 97.2}
